Data credit: PubChem BioAssay AID1963978

System: 616215-338-R-J1-PDC spheroids with HUVEC/MSC, viability;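 also: spheroids exposed to agents for seven days before the viability read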
experiment-notes: Anticancer human tumor 616215-338-R-J1-PDC patient-derived colon adenocarcinoma cell line growth inhibition [PI3K]
condition-set: second compound 10 µM; first compound 10 µM; hits give low values
Description: Combinatorial screen of targeted agents with the PI3K inhibitors inavolisib, alpelisib, duvelisib, and copanlisib in multi-cell type tumor spheroids A high-throughput screen of multi-cell type tumor spheroids was designed to identify active combinations of targeted small molecules and PI3K pathway inhibitors. […] Compounds. […] If the clinical Cmax for an agent had not been determined, the highest concentration tested was 10 microM. […]
assay-metric: viability, T/C (%)
Dear colleague, please return just the value in %, with no unit written.

// solved cases for viability, T/C follow
Q. Return reported viability, T/C; argument: C[C@@H](NC(=O)c1ncnc(N)c1Cl)c1ncc(C(=O)Nc2cc(C(F)(F)F)c(Cl)cn2)s1 + CC(Nc1ncnc2nc[nH]c12)c1cc2cccc(Cl)c2c(=O)n1-c1ccccc1
A. 48.4

Q. Need viability, T/C of CC(Cn1ccc(-c2ccc(C#N)c(Cl)c2)n1)NC(=O)c1cc(C(C)O)[nH]n1 (stereo not drawn) + Cc1nc(NC(=O)N2CCCC2C(N)=O)sc1-c1ccnc(C(C)(C)C(F)(F)F)c1 , thanks.
A. 84.1

Continuing:
Q. Which viability, T/C value is on record for C[C@@H](NC(=O)c1ncnc(N)c1Cl)c1ncc(C(=O)Nc2cc(C(F)(F)F)c(Cl)cn2)s1 + Cc1nc(NC(=O)N2CCCC2C(N)=O)sc1-c1ccnc(C(C)(C)C(F)(F)F)c1 ?
A. 19.2
